This collection of values is drawn from the supplement of paper PMC10567573.

B1: TAF7L (parent)
chain: PDVENEVKRLLRSDAEAVSTRWEV

Variants of: B1
protocol-description: protein stability index of a GFP-peptide fusion (GPS, HEK-293T) (PSI 1-6); higher = more stable;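 note: lentivirally expressed fusions sorted by FACS into six bins by GFP to DsRed ratio, PSI derived from sequencing read proportions per bin multiplied by bin number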
conditions: c terminus: a fixed tail appended
// label = yes if protein stability index is not less than 3, otherwise no

stdin: hey, is protein stability index for this one >= 3? "A17T"
stdout: no

Further cases:
stdin: Reported protein stability index at or above 3? "R9T"
stdout: yes
